System: NCI-H1437
test-method-notes: relative viability (nuclei count vs DMSO), 5 days (fraction); higher = more cells survive
study-conditions: first compound 8 µM
assay-metric: relative viability

compound	assay-metric	meas-value
Nc1cccc2c1CN(C1CCC(=O)NC1=O)C2=O (stereo not given) [Lenalidomide] + CC1(C)CCC(c2ccc(Cl)cc2)=C(CN2CCN(c3ccc(C(=O)NS(=O)(=O)c4ccc(N[C@H](CCN5CCOCC5)CSc5ccccc5)c(S(=O)(=O)C(F)(F)F)c4)cc3)CC2)C1 [Navitoclax] (partner 0.5 µM)	relative viability	1.14
Nc1cccc2c1CN(C1CCC(=O)NC1=O)C2=O (stereo not given) [Lenalidomide] + CCNC(=O)c1noc(-c2cc(C(C)C)c(O)cc2O)c1-c1ccc(CN2CCOCC2)cc1 [Luminespib] (partner 0.01 µM)	relative viability	1.23
Nc1cccc2c1CN(C1CCC(=O)NC1=O)C2=O (stereo not given) [Lenalidomide] + Cc1nc(NC(=O)N2CCC[C@H]2C(N)=O)sc1-c1ccnc(C(C)(C)C(F)(F)F)c1 [Alpelisib] (partner 2 µM)	relative viability	1
Nc1cccc2c1CN(C1CCC(=O)NC1=O)C2=O (stereo not given) [Lenalidomide] + Cc1cc(Nc2cc(N3CCN(C)CC3)nc(Sc3ccc(NC(=O)C4CC4)cc3)n2)n[nH]1 [Tozasertib] (partner 0.1 µM)	relative viability	0.47
Nc1cccc2c1CN(C1CCC(=O)NC1=O)C2=O (stereo not given) [Lenalidomide] + CC(=O)c1c(C)c2cnc(Nc3ccc(N4CCNCC4)cn3)nc2n(C2CCCC2)c1=O [Palbociclib] (partner 0.5 µM)	relative viability	0.353
